From: ChEMBL document CHEMBL1121427

As shown below, each of these molecules has a reported -Log C value.
# Test system: Albifimbria verrucaria
# PROCEDURE_TEXT: The compound was evaluated for activity against Myrothecium verrucaria
# Format: functional
# Parameters: unit not given here
OUTCOME_MEASURE: -Log C

                         query_smiles             measured_on  outcome_measure  recorded_measurement
 0                Nc1cc(I)c2cccnc2c1O  Albifimbria verrucaria           -Log C                  1.51
 1  O=[N+]([O-])c1cc(Br)c(O)c2ncccc12  Albifimbria verrucaria           -Log C                  1.72
 2             Oc1c(F)cc(Cl)c2cccnc12  Albifimbria verrucaria           -Log C                  2.29
 3                 Oc1c(I)ccc2cccnc12  Albifimbria verrucaria           -Log C                  2.43
 4             Oc1c(Br)cc(F)c2cccnc12  Albifimbria verrucaria           -Log C                  2.39
 5        O=[N+]([O-])c1ccc2cccnc2c1O  Albifimbria verrucaria           -Log C                  1.13
 6     O=[N+]([O-])c1cc(I)c2cccnc2c1O  Albifimbria verrucaria           -Log C                   0.6
 7              Oc1c(I)cc(F)c2cccnc12  Albifimbria verrucaria           -Log C                  1.16
 8   O=[N+]([O-])c1cc(F)c(O)c2ncccc12  Albifimbria verrucaria           -Log C                  1.21
 9            Oc1c(Cl)cc(Br)c2cccnc12  Albifimbria verrucaria           -Log C                  2.41
10    O=[N+]([O-])c1cc(Br)c2cccnc2c1O  Albifimbria verrucaria           -Log C                  1.13
11                Oc1c(Br)ccc2cccnc12  Albifimbria verrucaria           -Log C                  2.35
12             Oc1c(F)cc(Br)c2cccnc12  Albifimbria verrucaria           -Log C                  2.39
13             Oc1c(Br)cc(I)c2cccnc12  Albifimbria verrucaria           -Log C                  2.24
14     O=[N+]([O-])c1cc(F)c2cccnc2c1O  Albifimbria verrucaria           -Log C                  1.02
